- System: B16
- ASSAY_NAME: In vitro cytotoxicity activity against B16, by colony forming assay
- Format: functional, cell-based
- ASSAY_CONDITIONS: Mus musculus
PARAMETER_MEASURED: IC50 (µM)
The figure you give is taken to be in µM; do not add the unit.

COMPOUND	PARAMETER_MEASURED	NUMERIC_READOUT
C[N+](C)(C)CCCNC(=O)C(N)Cc1ccc(N(CCCl)CCCl)cc1.[Cl-] (configuration not stated)	IC50	19.5

Reading of IC50 for N[C@@H](Cc1ccc(N(CCCl)CCCl)cc1)C(=O)O with B16: 2.2

* * *

- ASSAY_NAME: In vitro cytotoxic activity against M4 Dau, by colony forming assay
- Assay type: functional
PARAMETER_MEASURED: pIC50
In plain terms, pIC50 is the concentration in mol/L turned into minus its base-10 logarithm.

# compound C[N+](C)(C)CCCNC(=O)CCCc1ccc(N(CCCl)CCCl)cc1.[I-] ; its pIC50 = 5.89

* * *

The entries below come with measured CC50 values attached.
- ASSAY_NAME: In vitro cytotoxicity in chondrosarcoma cell line (H-EMC-SS) by Alamar blue assay
- Type: functional
- ASSAY_CONDITIONS: Homo sapiens
Reply numerically in nM, unit not repeated.

// worked examples, CC50 included
COMPOUND	UNITS	CC50
O=C(O)CCCc1ccc(N(CCCl)CCCl)cc1 [CHLORAMBUCIL]	nM	3500
N[C@@H](Cc1ccc(N(CCCl)CCCl)cc1)C(=O)O [MELPHALAN]	nM	1600
C[N+](C)(C)CCCNC(=O)CCCc1ccc(N(CCCl)CCCl)cc1.[I-]	nM	700

Okay, next one:
# CC50 (compound: C[N+](C)(C)CCCNC(=O)C(N)Cc1ccc(N(CCCl)CCCl)cc1.[Cl-] (centres undefined) ) is 1800

* * *

- ASSAY_NAME: Partition coefficient (logD) (octanol/phosphate buffer)
- Assay type: physicochemical
Each record here notes measured logD.

Reference set, count: 2
MOLECULE	PARAMETER_MEASURED	RESULT
C[N+](C)(C)CCCNC(=O)CCCc1ccc(N(CCCl)CCCl)cc1.[I-]	logD	0.32
C[N+](C)(C)CCCNC(=O)C(N)Cc1ccc(N(CCCl)CCCl)cc1.[Cl-] (stereo not drawn)	logD	-1.12

Attention now shifts to the item below.
For N[C@@H](Cc1ccc(N(CCCl)CCCl)cc1)C(=O)O the molecule record lists logD as 0.11

* * *

- ASSAY_NAME: Glutathione-s-transferase activity of the compound, expressed as percentage of control.
- Assay type: functional
PARAMETER_MEASURED: Glutathione-S-transferase activity (% of control) (%)
Express your answer in %, writing the number without its unit.

Consider the worked cases shown below.
MOLECULE	NUMERIC_READOUT
N[C@@H](Cc1ccc(N(CCCl)CCCl)cc1)C(=O)O	85.3
O=C(O)CCCc1ccc(N(CCCl)CCCl)cc1	60.4
C[N+](C)(C)CCCNC(=O)CCCc1ccc(N(CCCl)CCCl)cc1.[I-]	55.4

Next up:
Briefly, Glutathione-S-transferase activity (% of control) measured for C[N+](C)(C)CCCNC(=O)C(N)Cc1ccc(N(CCCl)CCCl)cc1.[Cl-] (centres undefined) : 79

* * *

- System: M4Beu cell line
- ASSAY_NAME: In vitro cytotoxicity activity against M4 Beu, by colony forming assay
- Assay type: functional, cell-based
- ASSAY_CONDITIONS: Homo sapiens
PARAMETER_MEASURED: IC50 (µM)
Answer in µM, number only, no unit symbol.

COMPOUND	NUMERIC_READOUT
C[N+](C)(C)CCCNC(=O)C(N)Cc1ccc(N(CCCl)CCCl)cc1.[Cl-] (configuration not stated)	14.4

// moving on: another record for IC50
Documented IC50 of N[C@@H](Cc1ccc(N(CCCl)CCCl)cc1)C(=O)O : 1.2

* * *

- Test system: MCF7S
- ASSAY_NAME: In vitro cytotoxicity activity against MCF-7
- Assay type: functional, cell-based
- ASSAY_CONDITIONS: Homo sapiens
PARAMETER_MEASURED: IC50 (nM)
Numeric only. Scale: nM

Value (IC50, MCF7S) for record N[C@@H](Cc1ccc(N(CCCl)CCCl)cc1)C(=O)O [MELPHALAN] = 300

* * *

- System: M4Beu cell line
- ASSAY_NAME: Comparative cellular uptake study performed on M4 Beu (melanoma cell line)
- Assay type: functional, Homo sapiens
PARAMETER_MEASURED: Cellular uptake (pmol/µL)
The response must be a number in pmol/µL with no trailing unit.

MOLECULE	TESTED_TARGET	PARAMETER_MEASURED	NUMERIC_READOUT
C[N+](C)(C)CCCNC(=O)C(N)Cc1ccc(N(CCCl)CCCl)cc1.[Cl-] (centres undefined)	M4Beu cell line	Cellular uptake	6.82
O=C(O)CCCc1ccc(N(CCCl)CCCl)cc1 [CHLORAMBUCIL]	M4Beu cell line	Cellular uptake	18.4
N[C@@H](Cc1ccc(N(CCCl)CCCl)cc1)C(=O)O [MELPHALAN]	M4Beu cell line	Cellular uptake	21.9

The molecule C[N+](C)(C)CCCNC(=O)CCCc1ccc(N(CCCl)CCCl)cc1.[I-] showed Cellular uptake equal to 16.7

* * *

- Tested on: MCF7S
- ASSAY_NAME: In vitro cytotoxicity activity against MCF7, by colony forming assay
- Assay type: functional, cell-based
- ASSAY_CONDITIONS: Homo sapiens
PARAMETER_MEASURED: pIC50
Notebook: values listed as pIC50 are -log10 of the concentration (mol/L).

For C[N+](C)(C)CCCNC(=O)C(N)Cc1ccc(N(CCCl)CCCl)cc1.[Cl-] (stereo unspecified) the compound record lists pIC50 as 6.05
